test system: human lung cancer strain NCI-H441; format: cell-based
Where a SMILES comes first, the peptide text is derived from it. Bridges are numbered along the chain shown (N, C = ends). [ ]: non-standard residue; d: D form. The star is where a group is joined. hPhe(3-Cl-4-CF3) = N[C@@H](CCc1ccc(C(F)(F)F)c(Cl)c1)C(=O)O; NPrPhe(4-CF3) = CCCN[C@@H](Cc1ccc(C(F)(F)F)cc1)C(=O)O; NMeGly(cPent) = CN[C@H](C(=O)O)C1CCCC1; NMeD = CN[C@@H](CC(=O)O)C(=O)O; NMeL = CN[C@@H](CC(C)C)C(=O)O; Pip = O=C(O)[C@@H]1CCCCN1; Morpholide = C1CN(*)CCO1; NMeA = CN[C@@H](C)C(=O)O; Ac5c = NC1(C(=O)O)CCCC1; Aze = O=C(O)[C@@H]1CCN1; Sar = CNCC(=O)O
Measured pIC50 accompanies every entry in the list below.
Keep in mind that pIC50 stands for -log10 of concentration in molar terms.

Recorded pIC50, per entry:
# Compound, pIC50
measured = [
    ("CCO[C@@H]1C[C@H]2C(=O)NC3(CCC3)C(=O)N(C)[C@@H](C3CCCC3)C(=O)N(CCc3ccccc3)[C@H](C(=O)N(C)C)CC(=O)N(C)[C@@H](CC)C(=O)N[C@@H]([C@@H](C)CC)C(=O)N(C)CC(=O)N(C)[C@H]3CCCCCN(C3=O)[C@@H](Cc3ccc(C(F)(F)F)cc3)C(=O)N(C)CC(=O)N[C@@H](CCc3cc(F)c(C(F)(F)F)c(F)c3)C(=O)N2C1 [PP0637]", 6.02),
    ("CC[C@H](C)[C@@H]1NC(=O)[C@H](CC2CC2)N(C)C(=O)C[C@@H](C(=O)N2CCCC2)N(C)C(=O)[C@H](C2CCCC2)N(C)C(=O)C2(CCC2)NC(=O)[C@@H]2CC(F)(F)CN2C(=O)[C@H](CCc2cc(F)c(C(F)(F)F)c(F)c2)NC(=O)CN(C)C(=O)[C@H](Cc2ccc(C(F)(F)F)cc2)N2CC/C=C\\C[C@@H](C2=O)N(C)C(=O)CN(C)C1=O [PP1512]", 7.77),
    ("CCO[C@@H]1C[C@H]2C(=O)NC3(CC(C)(C)C3)C(=O)N(C)[C@@H](C3CCCC3)C(=O)N(C)[C@H](C(=O)N(C)C)CC(=O)N(C)[C@@H]([C@H](C)OC)C(=O)N[C@@H]([C@@H](C)CC)C(=O)N(C)CC(=O)N(C)[C@H]3C/C=C\\CCN(C3=O)[C@@H](Cc3ccc(C)cc3)C(=O)N(C)CC(=O)N[C@@H](CCc3ccc(C(F)(F)F)c(Cl)c3)C(=O)N2C1 [PP3189]", 7.73),
    ("CCCN1C(=O)[C@@H]2CCN2C(=O)[C@H](C)N(C)C(=O)[C@H]([C@@H](C)CC)NC(=O)[C@H](CC(C)C)N(C)C(=O)C[C@@H](C(=O)N2CCOCC2)N(C)C(=O)[C@H](C2CCCC2)N(C)C(=O)C2(CCCC2)NC(=O)[C@@H]2CCCCN2C(=O)[C@H](CCc2ccc(C(F)(F)F)c(Cl)c2)NC(=O)CN(C)C(=O)[C@@H]1Cc1ccc(C(F)(F)F)cc1 [PP0284] ([NMeL]I[NMeA][Aze][NPrPhe(4-CF3)][Sar][hPhe(3-Cl-4-CF3)][Pip][Ac5c][NMeGly(cPent)][NMeD]-Morpholide; lactam N-11)", 7.54),
]

Consider the additional compound presented here.
Bench note: what pIC50 did CCO[C@@H]1C[C@H]2C(=O)NC3(CC(C)(C)C3)C(=O)N(C)[C@@H](C(CC)CC)C(=O)N(C)[C@H](C(=O)N(C)C)CC(=O)N(C)[C@@H](CC3CCC3)C(=O)N[C@@H]([C@@H](C)CC)C(=O)N(C)CC(=O)N(C)[C@H]3C/C=C\CCN(C3=O)[C@@H](Cc3ccc(C(F)(F)F)cc3)C(=O)N(C)CC(=O)N[C@@H](CCc3ccc(C(F)(F)F)c(OC)c3)C(=O)N2C1 [PP2164] show?
7.85
